Below, each of the molecules is paired with its reported pIC50 value.
Target System: hP2X4 (human purinergic P2X receptor subtype 4) (Homo sapiens)
Sequence (Q99571 1-404 isoform Q99571-2): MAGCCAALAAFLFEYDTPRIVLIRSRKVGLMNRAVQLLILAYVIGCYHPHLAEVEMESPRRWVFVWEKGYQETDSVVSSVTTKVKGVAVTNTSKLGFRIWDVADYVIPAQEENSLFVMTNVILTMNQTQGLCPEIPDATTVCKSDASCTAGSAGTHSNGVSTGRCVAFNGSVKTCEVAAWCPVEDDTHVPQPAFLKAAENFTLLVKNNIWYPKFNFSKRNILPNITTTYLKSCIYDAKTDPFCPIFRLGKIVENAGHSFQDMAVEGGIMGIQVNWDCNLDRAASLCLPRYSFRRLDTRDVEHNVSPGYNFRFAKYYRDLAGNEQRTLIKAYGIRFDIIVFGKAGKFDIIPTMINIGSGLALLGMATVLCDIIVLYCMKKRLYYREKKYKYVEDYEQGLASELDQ
Protocol Text: FLIPR assay of intracellular calcium increase induced by activation of hP2X4 expressed in HEK293 cells (agonist BZ-ATP 2.5 μM)
Format: cell-based
Assay Context: HEK293 cells stably expressing hP2X4, FLIPR, class symbols, read-out: P2X4 IC50
pIC50: −log10 of the molar value.
Result Type: pIC50

>>> experimental_value("CS(=O)(=O)CCn1cc2c(S(N)(=O)=O)cc(NC(=O)Cc3ccccc3Cl)cc2n1")
"7.30 to 8.00"
>>> experimental_value("COc1cccc(Cn2cc3c(S(N)(=O)=O)cc(NC(=O)Cc4ccccc4Cl)cc3n2)c1")
"7.30 to 8.00"
>>> experimental_value("Nc1ccc(Cn2cc3c(S(N)(=O)=O)cc(NC(=O)Cc4ccccc4Cl)cc3n2)cn1")
"7.30 to 8.00"
>>> experimental_value("NS(=O)(=O)c1cc(NC(=O)Cc2ccccc2Cl)cc2nn(C3COC3)cc12")
"5.30 to 6.70"
>>> experimental_value("CC(C)C(=O)n1cc2c(S(N)(=O)=O)cc(NC(=O)Cc3ccccc3Cl)cc2n1")
"7.30 to 8.00"
>>> experimental_value("NS(=O)(=O)c1cc(NC(=O)Cc2ccccc2Cl)cc2nn(CCOC3CC3)cc12")
"7.30 to 8.00"
>>> experimental_value("NS(=O)(=O)c1cc(NC(=O)Cc2ccccc2Cl)cc2nn(Cc3ccc(O)cc3)cc12")
"7.30 to 8.00"
>>> experimental_value("NS(=O)(=O)c1cc(NC(=O)Cc2ccccc2Cl)cc2c1cnn2CCN1CCOCC1 [Compound 118A]")
"5.30 to 6.70"

Cited source: patent US12503444B2
